assay-text: Electrochemical properties (onset oxidation/reduction potentials, HOMO, LUMO, gap)
Format: physicochemical
assay-context: LUMO = −e(Ered + 4.32)
From the text: The energy difference between HOMO and LUMO is also illustrated in FIG. 4. […] The compounds of formulae 1b-d have similar energy difference between HOMO and LUMO, meaning their potential energy levels are similar. Among the compounds of formulae 1a-d, it appears that the compound of formula 1a has the best potential energy suitable for being applied in organic photovoltaics; the compound of formula 1c is the second best.
result-type: LUMO (eV)
A number alone suffices; assume eV.

Reference set, count: 3
compound="CCCC[Si](C)(C)OC12c3c4c5c6c7c8c(c9c%10c1c1c%11c3c3c%12c4c4c6c6c7c7c%13c8c9c8c9c%10c1c1c%10c%11c3c3c%11c%12c4c4c6c6c7c7c%13c8c8c9c1c1c%10c3c3c%11c4c6c4c7c8c1c34)C52OC(=O)c1c(C)cccc1C (stereo not shown) [Formula 1c]" result_type=LUMO unit_abbrev=eV value_measured=−3.83
compound="Cc1cccc(C)c1C(=O)OC12c3c4c5c6c7c8c(c9c%10c1c1c%11c3c3c%12c4c4c6c6c7c7c%13c8c9c8c9c%10c1c1c%10c%11c3c3c%11c%12c4c4c6c6c7c7c%13c8c8c9c1c1c%10c3c3c%11c4c6c4c7c8c1c34)C52O[Si](C)(C)C(C)(C)C (stereo not shown) [Formula 1d]" result_type=LUMO unit_abbrev=eV value_measured=−3.84
compound="Cc1cccc(C)c1C(=O)OC12c3c4c5c6c7c8c(c9c%10c1c1c%11c3c3c%12c4c4c6c6c7c7c%13c8c9c8c9c%10c1c1c%10c%11c3c3c%11c%12c4c4c6c6c7c7c%13c8c8c9c1c1c%10c3c3c%11c4c6c4c7c8c1c34)C52OC[Si](C)(C)c1ccccc1 (stereo not shown) [Formula 1b]" result_type=LUMO unit_abbrev=eV value_measured=−3.78

Now for the compound whose LUMO we want.
Prompt: Give LUMO for Cc1cccc(C)c1C(=O)OC12c3c4c5c6c7c8c(c9c%10c1c1c%11c3c3c%12c4c4c6c6c7c7c%13c8c9c8c9c%10c1c1c%10c%11c3c3c%11c%12c4c4c6c6c7c7c%13c8c8c9c1c1c%10c3c3c%11c4c6c4c7c8c1c34)C52O[Si](C)(C)c1ccccc1 (stereo not shown) [Formula 1a]
Response: −3.67
